B1: tRNA (parent)
chain: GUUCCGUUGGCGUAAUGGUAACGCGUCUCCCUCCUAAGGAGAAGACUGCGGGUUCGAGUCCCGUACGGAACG

variants of: B1; test: yeast fitness relative to wild type (ratio to wild type); higher = fitter; tRNA-Arg(CCU), competitive growth, 37 C, YPD
This sample holds only a part of the variants without activity.
METRIC: yeast fitness

>>> value("GUUCCGUUGGCGUUAUGGUAACGCGUCUCCCUCCUAAGGAGAAGACUGCGGAUUCGAGUCCCGUACGCAACG [A14U G52A G68C]")
"≤ 0.5"
>>> value("GUUGCGUUGGCGUAAUGGUAACCCGUCUCCCUCCUAAGGAGAAGACUGCGGGUUCGAGUCGCGUACGGAACG [C4G G23C C61G]")
"≤ 0.5"
>>> value("GUUCCGUUGGCGUAGUGGUCACGCGUCUCCCUCCUAAGGAGAUGACUGCGGGUACGAGUCCCGUACGGAACG [A15G A20C A43U U54A]")
"≤ 0.5"
>>> value("GUUCCAUUGGCGUAAUGGUAACGCGUCUCCCUCCUCGGGAGAAGACUGCGGAUUCGAGUCCCGUACGGAACG [G6A A36C A37G G52A]")
"≤ 0.5"

Please look at the following variant next.
**Q:** Looking for the measured yeast fitness of GUUCAGUUGGCGUAAGGGUACCGUGUCUCACUCCUAAGGAGAAGACUGCGGGUUCGAGGCCCGUACGGAACG [C5A U16G A21C C24U C30A U59G] , can you help?
**A:** ≤ 0.5
